biological target: STE20-like serine/threonine-protein kinase (Homo sapiens)
Lab note: compare ΔTm against 2 °C. Equal or greater, write Yes. Smaller, write No.

[
  {
    "COMPOUND": "CSc1nc(-c2ccc(F)cc2)c(-c2ccnc(NC(C)c3ccccc3)c2)[nH]1 (racemic)",
    "DISCRETE LABEL": "No"
  },
  {
    "COMPOUND": "N#C/C(=C(/N)Sc1ccc(N)cc1)c1ccccc1C(F)(F)F",
    "DISCRETE LABEL": "No"
  },
  {
    "COMPOUND": "O=C(Nc1cccc(Nc2nccc(Nc3cccc(C(F)(F)F)c3)n2)c1)C1CC1 [ANILINOPYRIMIDINE1]",
    "DISCRETE LABEL": "Yes"
  },
  {
    "COMPOUND": "Cn1cc(C2=C(c3cn(CCCSC(=N)N)c4ccccc34)C(=O)NC2=O)c2ccccc21",
    "DISCRETE LABEL": "Yes"
  },
  {
    "COMPOUND": "C[S+]([O-])c1ccc(CSc2nc(-c3ccc(F)cc3)c(-c3ccncc3)[nH]2)cc1 (centres undefined)",
    "DISCRETE LABEL": "No"
  },
  {
    "COMPOUND": "COC(=O)[C@]1(O)C[C@@H]2O[C@@]1(C)n1c3ccccc3c3c4c(c5c6ccccc6n2c5c31)C(=O)NC4 (single isomer, unassigned)",
    "DISCRETE LABEL": "Yes"
  },
  {
    "COMPOUND": "CN(c1cccnc1)c1cc2c(Nc3ccc(F)c(Cl)c3)c(C#N)cnc2cn1",
    "DISCRETE LABEL": "Yes"
  },
  {
    "COMPOUND": "O=C1Nc2ccccc2/C1=C/c1cnc[nH]1",
    "DISCRETE LABEL": "Yes"
  },
  {
    "COMPOUND": "Cc1cc(C=C2C(=O)C=CC2=O)cc(C)c1O",
    "DISCRETE LABEL": "No"
  },
  {
    "COMPOUND": "O=S(=O)(NCCNC/C=C/c1ccc(Br)cc1)c1cccc2cnccc12",
    "DISCRETE LABEL": "No"
  },
  {
    "COMPOUND": "NCCNc1ncc(C(N)=O)c(Nc2cccc(C(F)(F)F)c2)n1",
    "DISCRETE LABEL": "No"
  },
  {
    "COMPOUND": "O=C1c2ccccc2-[n+]2ccc3c([nH]c4ccccc43)c21 [FASCAPLYSIN CHLORIDE]",
    "DISCRETE LABEL": "No"
  },
  {
    "COMPOUND": "COc1nccc(-c2c(-c3ccc(F)cc3)ncn2[C@H]2CC[C@H](O)CC2)n1",
    "DISCRETE LABEL": "No"
  },
  {
    "COMPOUND": "CN[C@@H]1CC2O[C@@](C)([C@@H]1OC)n1c3ccccc3c3c4c(c5c6ccccc6n2c5c31)C(=O)NC4",
    "DISCRETE LABEL": "Yes"
  },
  {
    "COMPOUND": "Cc1cc2ncc(-c3ccccc3)nc2cc1C",
    "DISCRETE LABEL": "No"
  },
  {
    "COMPOUND": "O=c1ccc2ccc(O)c(O)c2o1 [DAPHNETIN]",
    "DISCRETE LABEL": "No"
  },
  {
    "COMPOUND": "COc1cc2ncnc(Nc3cccc(Br)c3)c2cc1OC",
    "DISCRETE LABEL": "Yes"
  },
  {
    "COMPOUND": "c1ccc(-c2n[nH]c3c2oc2ccccc23)cc1",
    "DISCRETE LABEL": "No"
  },
  {
    "COMPOUND": "O=c1cc(N2CCOCC2)oc2c1ccc1ccccc12",
    "DISCRETE LABEL": "No"
  }
]

---

Quick record of ΔTm values for Cyclin-dependent kinase 6 (Homo sapiens).

[
  {
    "SMILES TEXT": "N#C/C(=C\\c1ccc(O)c(O)c1)C(=O)NCc1ccccc1",
    "ΔTm": "0.4 °C"
  },
  {
    "SMILES TEXT": "O=Nc1c(-c2c(O)[nH]c3ccccc23)[nH]c2ccccc12",
    "ΔTm": "3.3 °C"
  },
  {
    "SMILES TEXT": "O=C1Nc2ccccc2/C1=C\\c1ccc[nH]1",
    "ΔTm": "2.6 °C"
  }
]

---

biological target: Serine/threonine-protein kinase PAK 4 (Homo sapiens) (UniProt O96013)
Sequence (O96013 whole entry, looked up): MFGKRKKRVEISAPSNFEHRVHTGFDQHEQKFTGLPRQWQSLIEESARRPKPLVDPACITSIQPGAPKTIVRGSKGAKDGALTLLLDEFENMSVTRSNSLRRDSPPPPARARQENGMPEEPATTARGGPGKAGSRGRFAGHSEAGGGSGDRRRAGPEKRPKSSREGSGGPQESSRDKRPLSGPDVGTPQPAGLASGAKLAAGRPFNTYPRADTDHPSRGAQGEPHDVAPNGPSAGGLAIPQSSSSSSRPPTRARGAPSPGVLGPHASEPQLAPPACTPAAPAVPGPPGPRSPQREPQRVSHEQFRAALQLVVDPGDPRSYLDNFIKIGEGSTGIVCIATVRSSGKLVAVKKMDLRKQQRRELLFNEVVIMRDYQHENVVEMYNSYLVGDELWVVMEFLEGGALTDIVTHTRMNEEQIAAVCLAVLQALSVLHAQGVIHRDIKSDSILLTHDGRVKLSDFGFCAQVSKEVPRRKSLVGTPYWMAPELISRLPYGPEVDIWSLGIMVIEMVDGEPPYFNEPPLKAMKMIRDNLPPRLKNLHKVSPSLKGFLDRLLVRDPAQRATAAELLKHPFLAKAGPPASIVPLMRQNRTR
REPORTED METRIC: ΔTm (°C)

[
  {
    "COMPOUND": "Nc1n[nH]c2nc3ccccc3nc12",
    "REPORTED METRIC": "ΔTm",
    "VALUE OBSERVED": -0.3
  },
  {
    "COMPOUND": "c1ccc(-c2n[nH]c3c2oc2ccccc23)cc1",
    "REPORTED METRIC": "ΔTm",
    "VALUE OBSERVED": -0.3
  },
  {
    "COMPOUND": "Cc1nc(Nc2ncc(C(=O)Nc3c(C)cccc3Cl)s2)cc(N2CCN(CCO)CC2)n1",
    "REPORTED METRIC": "ΔTm",
    "VALUE OBSERVED": 1.6
  },
  {
    "COMPOUND": "COc1ccc(COc2ccc(Cc3cnc(N)nc3N)cc2OC)cc1",
    "REPORTED METRIC": "ΔTm",
    "VALUE OBSERVED": -0.1
  },
  {
    "COMPOUND": "N#C/C(=C\\c1ccc(O)c(O)c1)C(=O)Nc1ccccc1",
    "REPORTED METRIC": "ΔTm",
    "VALUE OBSERVED": -0.5
  },
  {
    "COMPOUND": "COc1ccc2c(c[n+](C)c3c4cc5c(cc4ccc23)OCO5)c1OC [CHELERYTHRINE CHLORIDE]",
    "REPORTED METRIC": "ΔTm",
    "VALUE OBSERVED": -3.8
  },
  {
    "COMPOUND": "CN(C)CC1CCn2c(c(C3=C(c4c[nH]c5ccccc45)C(=O)NC3=O)c3ccccc32)C1 (configuration not stated)",
    "REPORTED METRIC": "ΔTm",
    "VALUE OBSERVED": 1.5
  },
  {
    "COMPOUND": "Nc1cccc(-c2cc3c(Oc4cccc(O)c4)ncnc3[nH]2)c1",
    "REPORTED METRIC": "ΔTm",
    "VALUE OBSERVED": 2.8
  },
  {
    "COMPOUND": "O=C1Cc2c([nH]c3ccc([N+](=O)[O-])cc23)-c2ccccc2N1",
    "REPORTED METRIC": "ΔTm",
    "VALUE OBSERVED": 2.1
  },
  {
    "COMPOUND": "O=[N+]([O-])c1ccc(-c2nc(-c3ccc(F)cc3)c(-c3ccncc3)[nH]2)cc1",
    "REPORTED METRIC": "ΔTm",
    "VALUE OBSERVED": 0.1
  },
  {
    "COMPOUND": "CC(C)[C@H](CO)Nc1nc(Nc2cc(N)cc(Cl)c2)c2ncn(C(C)C)c2n1",
    "REPORTED METRIC": "ΔTm",
    "VALUE OBSERVED": -0.1
  },
  {
    "COMPOUND": "CC[C@H](CO)Nc1nc(NCc2ccccc2)c2ncn(C(C)C)c2n1",
    "REPORTED METRIC": "ΔTm",
    "VALUE OBSERVED": 1.7
  },
  {
    "COMPOUND": "O=C1C(Cl)=C(N2C(=O)CCC2=O)C(=O)c2ccccc21",
    "REPORTED METRIC": "ΔTm",
    "VALUE OBSERVED": -0.4
  },
  {
    "COMPOUND": "Cc1cc(Nc2nc(-c3ccccc3)nc3ccccc23)n[nH]1",
    "REPORTED METRIC": "ΔTm",
    "VALUE OBSERVED": 5.9
  },
  {
    "COMPOUND": "O=C1Nc2ccc(I)cc2/C1=C1/Nc2ccccc2/C1=N\\O",
    "REPORTED METRIC": "ΔTm",
    "VALUE OBSERVED": 2.3
  },
  {
    "COMPOUND": "OC[C@H]1O[C@@H](n2cnc3cc(Cl)c(Cl)cc32)[C@H](O)[C@@H]1O",
    "REPORTED METRIC": "ΔTm",
    "VALUE OBSERVED": -0.9
  },
  {
    "COMPOUND": "O=c1cc(N2CCOCC2)oc2c1ccc1ccccc12",
    "REPORTED METRIC": "ΔTm",
    "VALUE OBSERVED": 0.2
  },
  {
    "COMPOUND": "C=CNC#N",
    "REPORTED METRIC": "ΔTm",
    "VALUE OBSERVED": 1.8
  },
  {
    "COMPOUND": "CN(C)S(=O)(=O)c1ccc2c(c1)/C(=C/c1cc3c([nH]1)CCCC3)C(=O)N2",
    "REPORTED METRIC": "ΔTm",
    "VALUE OBSERVED": 1.3
  },
  {
    "COMPOUND": "O=C1Nc2ccccc2/C1=C/c1cnc[nH]1",
    "REPORTED METRIC": "ΔTm",
    "VALUE OBSERVED": 2.2
  },
  {
    "COMPOUND": "Cc1ccc(NC(=O)c2cccc(N(C)C)c2)cc1NC(=O)c1ccc(O)cc1",
    "REPORTED METRIC": "ΔTm",
    "VALUE OBSERVED": 0.4
  },
  {
    "COMPOUND": "COc1ccc(CNc2nc(N(CCO)CCO)nc3c2ncn3C(C)C)cc1",
    "REPORTED METRIC": "ΔTm",
    "VALUE OBSERVED": 1.7
  }
]

Data origin, for the record: ChEMBL document CHEMBL1145498
